Test system: β-galactosidase in CMV-LacZ C2C12 myotubes
Assay: CMV-LacZ secondary screen in C2C12 myotubes (β-Gal stabilizing assay)
Format: cell-based, mouse
Conditions: 10 uM; C2C12 CMV-LacZ myotubes; fold relative to DMSO
// classify: if (CMV-LACZ in Myotubes, signal relative to DMSO < 1) Met else Not met

Some entries whose results are on file:
In [3]: df
Out[3]:
                                   compound                             system_tested  label_value
0  O=C(NCCCn1ccnc1)/C(=C/c1cccs1)NC(=O)c1ccco1 [MLS000712769-01]  β-galactosidase in CMV-LacZ C2C12 myotubes      Not met
1  N#Cc1nc(COc2ccccc2)oc1N1CCCC1 [MLS000036988-01]  β-galactosidase in CMV-LacZ C2C12 myotubes      Not met

### Prompt Confirm or reject: CMV-LACZ in Myotubes, signal relative to DMSO of O=C(Cn1nc(-c2ccc(Cl)cc2)ccc1=O)N1CCC2(CC1)OCCO2 [MLS000689492-01] lies strictly below 1
### Response Not met

### Prompt Item c1ccc(-c2nn[nH]n2)nc1 [MLS000767397-01] : CMV-LACZ in Myotubes, signal relative to DMSO beneath 1, strictly?
### Response Met

### Prompt API: query returns whether the compound falls strictly under 1 in CMV-LACZ in Myotubes, signal relative to DMSO. Query: CN(/C(=N/S(=O)(=O)c1cccs1)c1ccccc1)c1ccccc1 [MLS000582947-01]
### Response Met
